target: wild type K-Ras (Homo sapiens, UniProt P01116); construct: human K-Ras (wildtype, aa 1-169); 6xHis tag + TEV cleavage site (N, cleaved yes); made in house; host or cells: E. coli BL21(DE3); assay: Covalent modification of recombinant wild-type K-Ras by whole-protein mass spectrometry; format: binding; settings: 24-h incubation, 100 μM compound, 23° C., pH 7.5
Sequence (P01116 1-169 isoform P01116-2): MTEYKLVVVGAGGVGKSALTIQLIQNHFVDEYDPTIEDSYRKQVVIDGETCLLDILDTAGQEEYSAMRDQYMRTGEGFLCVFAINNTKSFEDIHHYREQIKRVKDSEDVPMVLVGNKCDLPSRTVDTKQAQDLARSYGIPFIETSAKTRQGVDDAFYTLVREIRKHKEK
property: % covalent modification of wild type K-Ras (%)

a. CN1CCC[C@@H]1COc1nc2c(c(N3CC[C@@]4(C)C(=O)O[C@H]4C3)n1)CCN(c1cccc3cccc(Cl)c13)C2 [Compound 12-028]
b. CN1CCC[C@@H]1COc1nc2c(c(N3C[C@@H]4OC(=O)[C@@H]4C3)n1)CCN(c1cccc3cccc(Cl)c13)C2 [Compound 12-058]
Data request: // max by % covalent modification of wild type K-Ras over [ a , b ] Give the label under which the chosen entry appears.
Data returned: b
(b: 6.0%, a: 0%)
